Attribute: melting point

Look over these answered cases.
- Compound: "COC(=O)CCc1oc(Cl)nc1-c1ccc(Cl)cc1 [Example 1]"
  melting point: "71 to 72 °C"
- Compound: "Cc1nccn1-c1nc(-c2ccc(Cl)cc2)c(CCCCO)o1 [Example 65]"
  melting point: "110 to 111 °C"
- Compound: "Cc1nccn1-c1nc(-c2ccc(Cl)cc2)c(CCC2NCCS2)o1 (centres unmarked) [Example 70]"
  melting point: "110 to 111 °C"

The reported melting point of the compound Cc1nccn1-c1nc(-c2ccc(Cl)cc2)c(CCCOS(C)(=O)=O)o1 [Example 71] was 97 to 98 °C

The reported melting point of the compound CCOC(=O)CCCc1oc(-n2ccnc2C)nc1-c1ccc(Cl)cc1 [Example 64] was 72 to 73 °C

The reported melting point of the compound Cc1nccn1-c1nc(-c2ccc(Cl)cc2)c(CCC=O)o1 [Example 69] was 109 to 110 °C

The reported melting point of the compound Cc1nccn1-c1nc(-c2ccc(Cl)cc2)c(CCO)o1 [Example 78] was 159 to 160 °C

The reported melting point of the compound CCOC(=O)CCc1oc(-n2ccnc2C)nc1-c1ccc(Cl)cc1 [Example 52] was 70 to 71 °C

The reported melting point of the compound O=C(O)CCc1oc(SCc2cccnc2)nc1-c1ccc(Cl)cc1 [Example 9] was 129 to 130 °C

The reported melting point of the compound CC(C)Oc1nc(-c2ccc(Cl)cc2)c(CCC(=O)O)o1 [Example 4] was 116 to 117 °C

The reported melting point of the compound O=C(O)CCc1oc(Sc2ccccc2)nc1-c1ccc(Cl)cc1 [Example 10] was 156 to 157 °C

The values you see were collected from patent US6498179B1.
